Structures can show the parent of a compound that is named as a salt.
Give measured melting point for each item. Keep answers brief.

melting point recorded for this compound, CC(C)c1cc(NC2=NCCN2)cc2cc[nH]c12 (as salt: succinate) , is 254 to 255 °C

melting point recorded for this compound, c1nc2ccc(NC3=NCCN3)cc2s1 (as salt: fumarate) [Example 14, 6-(2-Imidazolin-2-ylamino)benzothiazole] , is 215 to 216 °C

melting point recorded for this compound, CCc1cc(NC2=NCCN2)cc2ncsc12 (as salt: fumarate) , is 218 to 220 °C

melting point recorded for this compound, Cc1cc(NC2=NCCS2)cc2cc[nH]c12 (as salt: fumarate) [Example 8, 7-Methyl-5-(2-thiazolin-2-ylamino)indole] , is 200 to 202 °C

melting point recorded for this compound, Cc1cc(NC2=NCCN2)cc2cc[nH]c12 (as salt: fumarate) , is 224 to 226 °C

melting point recorded for this compound, Cc1c(NC2=NCCN2)ccc2[nH]ccc12 (as salt: fumarate) , is 215 to 218 °C

melting point recorded for this compound, Cc1c(NC2=NCCN2)ccc2ncsc12 (as salt: fumarate) , is 213 to 215 °C

* * *

# targetOrSystem: human α1B adrenergic receptor (Homo sapiens)
# Construct: The entire coding region of α1B (1563 bp); expressed in transfected cells
# Sequence (P35368 whole entry): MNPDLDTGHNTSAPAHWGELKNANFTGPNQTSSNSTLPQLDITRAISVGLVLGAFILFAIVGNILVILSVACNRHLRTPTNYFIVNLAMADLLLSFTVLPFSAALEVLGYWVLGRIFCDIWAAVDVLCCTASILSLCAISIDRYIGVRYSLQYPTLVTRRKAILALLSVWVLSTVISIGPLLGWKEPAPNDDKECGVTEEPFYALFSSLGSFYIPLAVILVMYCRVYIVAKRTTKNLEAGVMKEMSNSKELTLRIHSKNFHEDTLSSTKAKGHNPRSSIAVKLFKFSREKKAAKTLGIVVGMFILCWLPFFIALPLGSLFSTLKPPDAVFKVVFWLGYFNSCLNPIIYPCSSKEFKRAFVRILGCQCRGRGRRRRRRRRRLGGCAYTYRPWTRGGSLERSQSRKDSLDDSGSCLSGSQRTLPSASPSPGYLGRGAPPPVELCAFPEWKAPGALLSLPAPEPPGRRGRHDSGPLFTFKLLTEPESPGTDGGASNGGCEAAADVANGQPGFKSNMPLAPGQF
# assay: Radioligand binding assay, [3H]prazosin competition
# condition: cloned human α1B, LM(tk-) cell membranes, [3H]prazosin; read-out: pKi Alpha-1 B (converted)
propertyMeasured: Ki (nM)
A number alone suffices; assume nM.

Ki recorded for this compound, "N#Cc1cc(NC2=NCCN2)cc2cc[nH]c12" , is 12600

Ki recorded for this compound, "Brc1cc(NC2=NCCN2)cc2cc[nH]c12" , is 26.9

Ki recorded for this compound, "c1nc2cc(NC3=NCCN3)ccc2s1" , is 708

Ki recorded for this compound, "CC(=O)c1cc(NC2=NCCN2)cc2cc[nH]c12" , is 56.2

* * *

# targetOrSystem: human α2A adrenergic receptor (Homo sapiens)
# Sequence (P08913 whole entry): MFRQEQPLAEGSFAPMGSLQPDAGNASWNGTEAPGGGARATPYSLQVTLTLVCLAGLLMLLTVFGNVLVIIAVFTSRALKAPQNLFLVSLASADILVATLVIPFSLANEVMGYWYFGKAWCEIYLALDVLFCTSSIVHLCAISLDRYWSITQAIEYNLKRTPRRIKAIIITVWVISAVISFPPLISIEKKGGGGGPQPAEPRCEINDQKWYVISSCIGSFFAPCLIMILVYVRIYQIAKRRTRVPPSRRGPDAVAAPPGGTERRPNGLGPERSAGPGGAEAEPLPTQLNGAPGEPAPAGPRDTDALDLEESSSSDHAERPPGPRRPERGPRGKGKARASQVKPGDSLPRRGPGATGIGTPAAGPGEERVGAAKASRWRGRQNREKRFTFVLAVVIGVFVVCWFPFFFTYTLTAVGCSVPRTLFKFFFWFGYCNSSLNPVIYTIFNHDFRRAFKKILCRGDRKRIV
# assay: Agonist activity: inhibition of forskolin-stimulated cAMP synthesis
propertyMeasured: EC50 (nM)
A number alone suffices; assume nM.

EC50 recorded for this molecule, "c1nc2cc(NC3=NCCN3)ccc2s1" , is 12.3

EC50 recorded for this molecule, "Brc1cc(NC2=NCCN2)cc2cc[nH]c12" , is 0.437

EC50 recorded for this molecule, "c1nc2ccc(NC3=NCCS3)cc2s1" , is 3090

EC50 recorded for this molecule, "Cc1cc(NC2=NCCS2)cc2cc[nH]c12" , is 13.8

* * *

# targetOrSystem: human α2B adrenergic receptor (Homo sapiens)
# Construct: expressed in transfected cells
# assay: Agonist activity: inhibition of forskolin-stimulated cAMP synthesis
# Type: cell-based
propertyMeasured: pEC50
Hey, just a heads up that pEC50 is the negative log base 10 of the concentration in molar.

pEC50 recorded for this compound, "c1nc2ccc(NC3=NCCN3)cc2s1" , is 7.85

* * *

# targetOrSystem: human α2B adrenergic receptor (Homo sapiens, UniProt P18089)
# Construct: expressed in transfected cells
# Sequence (P18089 whole entry): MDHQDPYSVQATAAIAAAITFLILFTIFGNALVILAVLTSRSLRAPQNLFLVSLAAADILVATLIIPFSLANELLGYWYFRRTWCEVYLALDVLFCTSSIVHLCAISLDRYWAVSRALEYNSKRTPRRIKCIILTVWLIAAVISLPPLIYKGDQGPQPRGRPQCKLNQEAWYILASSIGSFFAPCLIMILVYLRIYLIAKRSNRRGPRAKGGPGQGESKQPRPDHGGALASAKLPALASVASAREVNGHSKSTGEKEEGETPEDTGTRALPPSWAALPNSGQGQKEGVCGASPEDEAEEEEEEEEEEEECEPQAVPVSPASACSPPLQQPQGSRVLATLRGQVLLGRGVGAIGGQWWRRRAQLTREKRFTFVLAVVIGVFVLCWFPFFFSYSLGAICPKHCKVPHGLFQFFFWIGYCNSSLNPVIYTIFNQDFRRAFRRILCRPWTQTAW
# assay: Agonist activity: inhibition of forskolin-stimulated cAMP synthesis
# Type: cell-based
# condition: inhibition of forskolin-stimulated cAMP, stably transfected cells expressing human α2B; read-out: pEC50 Alpha-2 B (converted)
propertyMeasured: EC50 (nM)
A number alone suffices; assume nM.

EC50 of Brc1cc(NC2=NCCN2)cc2cc[nH]c12 [Example 2, 7-Bromo-5-(2-imidazolin-2-ylamino)indole] , assay on human α2B adrenergic receptor (Homo sapiens, UniProt P18089), is 1.91

EC50 of CC(=O)c1cc(NC2=NCCN2)cc2cc[nH]c12 [Example 6] , assay on human α2B adrenergic receptor (Homo sapiens, UniProt P18089), is 81.3

EC50 of c1nc2cc(NC3=NCCN3)ccc2s1 [Example 13, 5-(2-Imidazolin-2-ylamino)benzothiazole] , assay on human α2B adrenergic receptor (Homo sapiens, UniProt P18089), is 10.2

EC50 of c1nc2ccc(NC3=NCCS3)cc2s1 [Example 15, 6-(2-Thiazolin-2-ylamino)benzothiazole] , assay on human α2B adrenergic receptor (Homo sapiens, UniProt P18089), is 138

EC50 of Cc1cc(NC2=NCCS2)cc2cc[nH]c12 [Example 8, 7-Methyl-5-(2-thiazolin-2-ylamino)indole] , assay on human α2B adrenergic receptor (Homo sapiens, UniProt P18089), is 44.7

EC50 of N#Cc1cc(NC2=NCCN2)cc2cc[nH]c12 [Example 5, 7-Cyano-5-(2-imidazolin-2-ylamino)indole] , assay on human α2B adrenergic receptor (Homo sapiens, UniProt P18089), is 316

* * *

# targetOrSystem: human α2C adrenergic receptor (Homo sapiens)
# Construct: The entire coding region of α2C (1383 bp), including 2 bp of 5′ UT and 400 bp of 3′ UT; expressed in transfected cells
# Sequence (P18825 whole entry): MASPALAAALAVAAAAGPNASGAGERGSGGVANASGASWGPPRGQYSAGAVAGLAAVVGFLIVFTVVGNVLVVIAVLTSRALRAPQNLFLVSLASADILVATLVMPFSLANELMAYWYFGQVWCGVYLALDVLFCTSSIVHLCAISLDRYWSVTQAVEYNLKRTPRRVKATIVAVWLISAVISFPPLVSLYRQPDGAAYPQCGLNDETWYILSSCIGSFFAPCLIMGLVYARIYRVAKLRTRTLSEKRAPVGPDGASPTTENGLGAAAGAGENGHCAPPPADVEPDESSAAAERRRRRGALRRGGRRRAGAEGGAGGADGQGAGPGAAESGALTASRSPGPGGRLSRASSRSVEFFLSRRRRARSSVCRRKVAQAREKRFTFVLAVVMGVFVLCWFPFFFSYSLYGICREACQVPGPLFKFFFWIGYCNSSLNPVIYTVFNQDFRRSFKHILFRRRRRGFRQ
# assay: Agonist activity: inhibition of forskolin-stimulated cAMP synthesis
# Assay type: cell-based
# condition: inhibition of forskolin-stimulated cAMP, stably transfected cells expressing human α2C; read-out: pEC50 Alpha-2 C (converted)
Binary label based on EC50 with cut-off 0.6 nM: below gives T, not below gives F.

Hi there! Is EC50 for "CC(=O)c1cc(NC2=NCCN2)cc2cc[nH]c12" below 0.6 nM, do you know?
F

Hi there! Is EC50 for "Brc1cc(NC2=NCCN2)cc2cc[nH]c12" below 0.6 nM, do you know?
T

Hi there! Is EC50 for "Cc1cc(NC2=NCCS2)cc2cc[nH]c12" below 0.6 nM, do you know?
F
